# Tested on: NCI-H226 lung
# run description: NCI tumour cell line growth inhibition, 48 h
recorded endpoint: TGI

// solved cases for TGI follow
[
  {
    "molecule": "O=c1[nH]nc(Cc2ccccc2)n1CCCl",
    "TGI": "> 100 µM"
  },
  {
    "molecule": "C[C@]12CC[C@@H]3c4cc(O)c(O)cc4CC[C@H]3[C@@H]1CC[C@@H]2O",
    "TGI": "> 100 µM"
  },
  {
    "molecule": "CC1=NNC(=O)C1C1CC(c2c[nH]c3ccccc23)=NN(C(N)=O)C1=O (stereo not given)",
    "TGI": "> 100 µM"
  },
  {
    "molecule": "CCOP12(OCC)NC(=O)OC1(C(F)(F)F)c1ccccc1O2 (stereo not given)",
    "TGI": "> 100 µM"
  },
  {
    "molecule": "OCCCNc1ccnc2cc(Cl)ccc12",
    "TGI": "> 100 µM"
  }
]

Notebook: COC(=O)C1=COC(OC2OC(CO)C(O)C(O)C2O)C2C3CN4CCc5c([nH]c6ccccc56)C4(CC12)O3 (stereo not given) , TGI read as > 100 µM

Measured TGI of "COc1cc2c(cc1OCCCOS(C)(=O)=O)N=C[C@@H]1CCCN1C2=O" : > 100 µM

The reported TGI of the molecule "CCCNCC(=O)O[C@]1(CC)C(=O)OCc2c1cc1n(c2=O)Cc2cc3ccccc3nc2-1" was 0.331 µM

Input "N=N/C(=C\c1c(O)[nH]c2ccccc12)c1ccccc1" . Output TGI: 99.1 µM

Note to self: TGI recorded for "CC/C(=C(/c1ccc(O)cc1)c1ccc(OCCN)cc1)c1ccccc1" was 30.7 µM
